Tested on: Sphaerotheca fuliginea
MEASUREMENT PROTOCOL: In vivo preventive test on Sphaerotheca fuliginea (powdery mildew on cucurbits)
CONDITION SUMMARY: 500 ppm, gherkin plants sprayed 24 h before contamination, graded 12 days after contamination
# reported Eff. %; entries follow
ASSAY METRIC: Eff. % (%)

                                   compound  meas_value
0  Cn1cc(C(=O)Nc2cccc3c2CC2(CCCC2)C3)c(C(F)F)n1 [Example 25]          95
1  CCC1(CC)Cc2c(NC(=O)c3cn(C)nc3C(F)(F)F)cccc2C1C (racemic) [Example 74]          98
2  Cc1nn(C)c(C)c1C(=O)Nc1cccc2c1CC(C)(C)C2C (stereo not drawn) [Example 55]          88
3  CCC1Cc2c(NC(=O)c3cn(C)nc3C(F)F)cccc2C1(C)C (stereo not drawn) [Example 36]         100
4  CCC1Cc2c(NC(=O)c3c(C)nn(C)c3F)cccc2C1(C)C (stereo not drawn) [Example 37]         100
5  CCC1(CC)Cc2c(NC(=O)c3cn(C)nc3C(F)F)cccc2C1C (racemic) [Example 79]         100
6  Cc1nn(C)c(Cl)c1C(=O)Nc1cccc2c1CC(C(C)C)C2(C)C (racemic) [Example 69]          72
7  Cc1nn(C)c(F)c1C(=O)Nc1cccc2c1C(C)C(C)C2(C)C (stereo not drawn) [Example 33]         100
8  Cc1nn(C)c(F)c1C(=O)Nc1cccc2c1CC(C)(C)C2C (stereo not drawn) [Example 60]          98
